Hello, the source for this data is patent US7169932B2, in case you need it.

Some compounds, each annotated with its measured Ki.
# experimental-system: HIV-1 protease (Q7S) (Human immunodeficiency virus type 1 group M subtype B, UniProt P04585, Q495S)
# Construct: made in house
# protocol: HIV-1 Protease RET Assay
# Type: biochemical
# run-parameters: Ave. Ki (nM), RET assay, Q7S enzyme, pH 4.8, 37 C
measured-parameter: Ki (nM)

[
  {
    "compound": "Cc1c(O)cccc1C(=O)N[C@@H](Cc1ccccc1)[C@H](O)C(=O)N1CSC(C)(C)[C@H]1C(=O)NCc1cccc(N)c1",
    "unit-of-measure": "nM",
    "value-qualifier": "<",
    "value-measured": 0.1
  },
  {
    "compound": "C/C=C(/C)CNC(=O)[C@H]1N(C(=O)[C@@H](O)[C@H](Cc2ccccc2)NC(=O)c2cccc(O)c2C)CSC1(C)C",
    "unit-of-measure": "nM",
    "value-qualifier": "<",
    "value-measured": 0.1
  },
  {
    "compound": "Cc1c(O)cccc1C(=O)N[C@@H](Cc1ccccc1)[C@H](O)C(=O)N1CSC(C)(C)[C@H]1C(=O)NCc1cccc(O)c1",
    "unit-of-measure": "nM",
    "value-qualifier": "=",
    "value-measured": 0.23
  },
  {
    "compound": "Cc1noc(C)c1C(=O)NC(Cc1ccccc1)C(O)C(=O)N1CSC(C)(C)C1C(=O)NCc1ccccc1C(F)(F)F (stereo not drawn)",
    "unit-of-measure": "nM",
    "value-qualifier": "=",
    "value-measured": 3.5
  },
  {
    "compound": "Cc1c(O)cccc1C(=O)N[C@@H](Cc1ccccc1)[C@H](O)C(=O)N1CSC(C)(C)[C@H]1C(=O)NCCc1ccccc1",
    "unit-of-measure": "nM",
    "value-qualifier": "=",
    "value-measured": 10
  },
  {
    "compound": "Cc1ccccc1CNC(=O)[C@H]1N(C(=O)[C@@H](O)[C@H](Cc2ccccc2)NC(=O)c2cccn2C)CSC1(C)C",
    "unit-of-measure": "nM",
    "value-qualifier": "=",
    "value-measured": 0.45
  }
]

###

log10(Ki) values for the compounds below.
# experimental-system: HIV-1 protease (Q7S) (Human immunodeficiency virus type 1 group M subtype B, UniProt P04585, Q495S)
# Construct: made in house
# protocol: HIV-1 Protease RET Assay
# Format: biochemical
# run-parameters: Ave. Ki (nM), RET assay, Q7S enzyme, pH 4.8, 37 C
measured-parameter: log10(Ki) (log10 of the value in nM)

[
  {
    "compound": "Cc1ccccc1CNC(=O)[C@H]1N(C(=O)[C@@H](O)[C@H](Cc2ccccc2)NC(=O)c2cccs2)CSC1(C)C",
    "log10(Ki)": 0.20
  },
  {
    "compound": "Cc1ccccc1CNC(=O)[C@H]1N(C(=O)[C@@H](O)[C@H](Cc2ccccc2)NC(=O)c2ccc(O)cc2C)CSC1(C)C",
    "log10(Ki)": -0.80
  },
  {
    "compound": "Cc1c(O)cccc1C(=O)N[C@@H](Cc1ccccc1)[C@H](O)C(=O)N1CSC(C)(C)[C@H]1C(=O)NCc1cc(F)ccc1C(F)(F)F",
    "log10(Ki)": 0.30
  },
  {
    "compound": "Cc1c(O)cccc1C(=O)N[C@@H](Cc1ccccc1)[C@H](O)C(=O)N1CSC(C)(C)[C@H]1C(=O)NCCCl",
    "log10(Ki)": 0.08
  },
  {
    "compound": "C=CCNC(=O)[C@H]1N(C(=O)[C@@H](O)[C@H](Cc2ccccc2)NC(=O)c2cccnc2C)CSC1(C)C",
    "log10(Ki)": 1.24
  },
  {
    "compound": "Cc1ccccc1CNC(=O)C1N(C(=O)C(O)C(Cc2ccccc2)NC(=O)c2cccc(C)c2C)CSC1(C)C (stereo not shown)",
    "log10(Ki)": -0.38
  },
  {
    "compound": "Cc1ccccc1CNC(=O)[C@H]1N(C(=O)[C@@H](O)[C@H](Cc2ccccc2)NC(=O)c2cccc(F)c2C)COC1(C)C",
    "log10(Ki)": 0.04
  }
]
